Assay target: UniProtKB P07861
Sequence (P07861 whole entry): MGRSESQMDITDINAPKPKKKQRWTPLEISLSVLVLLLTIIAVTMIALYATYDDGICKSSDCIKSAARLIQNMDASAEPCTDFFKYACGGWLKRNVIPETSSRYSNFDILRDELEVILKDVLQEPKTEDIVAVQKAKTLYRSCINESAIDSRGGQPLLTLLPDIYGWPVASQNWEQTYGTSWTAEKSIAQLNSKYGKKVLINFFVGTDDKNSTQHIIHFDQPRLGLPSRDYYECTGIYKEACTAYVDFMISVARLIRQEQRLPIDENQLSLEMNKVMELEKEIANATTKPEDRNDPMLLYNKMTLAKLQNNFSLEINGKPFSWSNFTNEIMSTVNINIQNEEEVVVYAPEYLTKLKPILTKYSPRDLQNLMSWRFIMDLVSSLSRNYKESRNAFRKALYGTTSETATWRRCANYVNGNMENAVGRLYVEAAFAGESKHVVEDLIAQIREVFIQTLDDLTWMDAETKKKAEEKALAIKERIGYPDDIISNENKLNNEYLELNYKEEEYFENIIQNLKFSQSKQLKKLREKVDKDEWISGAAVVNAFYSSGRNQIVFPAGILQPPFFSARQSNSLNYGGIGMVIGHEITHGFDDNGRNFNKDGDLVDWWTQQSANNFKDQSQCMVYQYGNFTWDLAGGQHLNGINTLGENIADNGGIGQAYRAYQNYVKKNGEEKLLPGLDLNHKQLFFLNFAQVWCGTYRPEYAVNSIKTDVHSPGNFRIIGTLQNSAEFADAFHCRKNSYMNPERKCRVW
Reported metric: IC50 (nM)

mol=O=C(N[C@@H](Cc1ccc(-c2ccccc2)cc1)C(=O)N1CCC[C@H]1C(=O)O)[C@@H](S)c1ccc2c(c1)OCO2 measurement_qualifier== numeric_value=385
mol=CC(C)[C@H](S)C(=O)N[C@@H](Cc1ccc(-c2ccccc2)cc1)C(=O)N[C@@H](Cc1ccc(O)cc1)C(=O)O measurement_qualifier== numeric_value=28
mol=O=C(N[C@@H](Cc1cccc2ccccc12)C(=O)N1CCC[C@H]1C(=O)O)[C@H](S)Cc1ccccc1 measurement_qualifier=> numeric_value=1000
mol=O=C(N[C@@H](Cc1ccc2ccccc2c1)C(=O)N1CCC[C@H]1C(=O)O)[C@@H](S)Cc1ccccc1 measurement_qualifier== numeric_value=705
